B1: TPR t1 (parent)
chain: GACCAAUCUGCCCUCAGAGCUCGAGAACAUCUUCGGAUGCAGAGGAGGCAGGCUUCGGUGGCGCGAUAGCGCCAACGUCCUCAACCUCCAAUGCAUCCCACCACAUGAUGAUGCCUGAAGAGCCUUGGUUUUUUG

variants of: B1; assay: polymerase ribozyme fitness, log enrichment relative to wild type (log ratio); higher = more active; in vitro selection for triplet polymerase activity
# key: entry, value: polymerase ribozyme fitness (log ratio)

Query Sequence: GACCAAUCUGCCCUCAGAGCUCGAGAUCAUCUUCGGAUGCAGAGGAGGCAGGCUUCGGUGGCGCGAUAGCGCCAACGUCCUCUACUUCCAAUGCAUCCCACCACAUGAUGAUGCCUGAAGAGCCUUGGCUUUUUG [A27U A83U C86U U129C]
polymerase ribozyme fitness (log ratio): -3.64

Query Sequence: GACCCAUCUGCCCCCAGAGCUCGAGAACAUCUUCGGAUGCAGAGGAGGCAGGCAUCGGUGGCGCGAUAGCGCCAACGUCCUCAACCUUCAAUGCAUCCCACCACAUGAUGAUGCCUGAAGAGCAUUGGUUUUUUG [A5C U14C U54A C88U C124A]
polymerase ribozyme fitness (log ratio): 1.25

Query Sequence: GACCAAUCUGCCCUCAGAGCUCGAGAACAUCUUCGGAUGCAGAGGAGGCAGGCUUCGGUGGCGCGAUAGCGCCAACGUCCGCAACCUCCAAUGCAUCCCACCACAUGAUGAUGCCUGAAGAGCCUUGGUUUUUUG [U81G]
polymerase ribozyme fitness (log ratio): -3.8

Query Sequence: GACCAAUCUGCUCUCAGAGCUCGAGAACAUCUUCGGAUGCAGAGGAGGCAGGCUUCGGUGGCGCGAUAGCGCCAACGUCCUCAACCUCCAAUGCAUCCCACCACAUGAUGAUGCCUGAAGAGCAUUGGUUUUUUG [C12U C124A]
polymerase ribozyme fitness (log ratio): 1.8

Query Sequence: GACCAAUCUGCCCUCAGAUUUCGAGAACAUCUUCGGAUGCAGAGGAGGCAGGCUUCGGUGGCGCGAUAGCGCCAACGUCCUCAACCUCCAAUGCAUCCCACCACACGAUGAUGCCUGAAGAGCCUUGGUUUUUUG [G19U C20U U106C]
polymerase ribozyme fitness (log ratio): -2.36

Query Sequence: GACCAAUCUGCCCUCAGAGCUCGAGAACAUCUUCGGAUGCUGAGGAGGCAGGCUUCGGUGGCGCGAUAGCGCCAACGUCCUCAACCUCCAAUGCAUCCCACCAUAUGAUGAUGCCUGAAGAGCCUUGGUUUUUUG [A41U C104U]
polymerase ribozyme fitness (log ratio): -0.832

Query Sequence: GACCAAUCUGCCCUCAGAGCUCGAGAACAUCUUCGGAUGUAGAGGAGGCAGGCUUCGGUGGCGCGAUAGCGCCAACGUCCUCGACCUCCAAUGCAUCCCACCACAUGAUGAGGCCUGAAGAGCCUUGGUUUUUUG [C40U A83G U112G]
polymerase ribozyme fitness (log ratio): -1.69

Query Sequence: GACCAAUCUGCCCUCAGAGUUCGAGAACAUCUUCGGAUGCAGAUGAGGCAGGCUUCGGUGGCGCGAUAGCGCCAACGUCCUCAACCUCCAAUACAUCCCACCACAUGAUGAUGCCUGAAGAGCCUUGGUUUUUUG [C20U G44U G93A]
polymerase ribozyme fitness (log ratio): -3.1

Query Sequence: GACCAAUCUGCCCUCAGAGCUCGAGAACAUCUUCGGAUGCAGAGGAGGCAGGCGUCGGUGGCGCGAUAGCGCCAACGUCCUCAACCUCCAAUGAAUCCCACCACAUGAUGAUGACUGAAGAGCCUUGGUUUUUUG [U54G C94A C114A]
polymerase ribozyme fitness (log ratio): -3.33

Query Sequence: GACCAAACUGCCCUCAUAGCUCGAGAACAUCUUCGGAUGCAGAGGAGGCAGCCUUCGGUGGCGUGAUAGCGCCAACGUCCUCAACCUCCAAUGCAUCCCACCACAUGAUGAUGCCUGAAGAGGCUUGGUUUUUUG [U7A G17U G52C C64U C123G]
polymerase ribozyme fitness (log ratio): -1.52

Query Sequence: GACCAAUCUGCACUCAGAGCUCGAGAACAUCUUCGGAUGCAGAGGAGGCAGGCUUCGGUGGCGCGAUAGGGCCAACGUCCUCAACCUCAAAUGCAUCCCACCACAUGAUAAUGCCUGAAGAGCCUUGGAUUUUUG [C12A C70G C89A G110A U129A]
polymerase ribozyme fitness (log ratio): -6.66

Query Sequence: GACCAAUCUGCCCUCAGAGGUCGAGAACAUCUUCGGAUGCAGAGGAGGCAGGCUUCGGUGGCGCGAUAGCGCCAACGUCCUCAACCUCCAAUGCAUCCCACCACAUGAUGAUGCCUGAAUAGCCUUGGUUUUUUG [C20G G120U]
polymerase ribozyme fitness (log ratio): -4.25

Query Sequence: GACCAAUUUGCCCUCAGAGCACGAGAACAUCUUCGGAUGCAGAGGAGGCAGGCUUCGGUGGCGCGAUACCGCCAACGUCCUCAACCUCCAAUGCAUCCCACCACACGAUGAAGCCUGAAGAGCCUUGGUUUUUUG [C8U U21A G69C U106C U112A]
polymerase ribozyme fitness (log ratio): -0.365

Query Sequence: GACCAAUCUGCCCUCAGAGCUCGAGAACAUCUUCGGAUGCAGAGGAGGCACGCUUCGGUGGCGCGAUAGCGCCAACGUUCUCAACCUCCAAUGCAUCCCACCACAUGAUGAUGCCUGAAGAGCCUUGGUUUUUUG [G51C C79U]
polymerase ribozyme fitness (log ratio): -3.54

Query Sequence: GACCAAUCUGCCCUCAGAGCUCGAGAACAUCUUCGGAUGCAGAGGUGGCAGGCUUCGGUGGCGCGAUAGCGCCAACGUCCUCAACCUCCACUGCAUCCCACCACAUGAUGAUGCGUGAAGAGCCUUGGUUUUUUG [A46U A91C C115G]
polymerase ribozyme fitness (log ratio): -3.55

Query Sequence: GACCAUUCUGCACUCAGAGCUCGAGAACAUCUUCGGAUGCAGAGGAGGCAGGCUUCGGUGUCGCGAUAGCGCCAACGUCCUCAACCUCCAAUGCAUCCCACCACAUGAUGAUGCCUGAAGAGCCUUGGUUUUUUG [A6U C12A G61U]
polymerase ribozyme fitness (log ratio): 0.0933

Query Sequence: GACCGAUCUGCCCUCAGAGCUCGAGAACAUCUUCGGAUGCAGAGGAGGCAGGCUUCGGUAGCGCGAUAGCGCCAACGUCCUCAACCUCCAAUGCAUCCCACCACAUGAUGAUGCCUGAAUAGCCUUGGUUUUUUG [A5G G60A G120U]
polymerase ribozyme fitness (log ratio): 0.955

Query Sequence: GACCAAUCUGCCCUCAGAGCUCGAGAACAUCUUCGGAUGCAGAGGAGGCAGGCUUCGGUUGCGCGAUAGUGCCAACGUCCUCAACCUCCAAUGCAUCCCACCACAUGAUGAUGCCUGAAGAGCCUUGGUUUUUUG [G60U C70U]
polymerase ribozyme fitness (log ratio): -2.43

Query Sequence: GACCAAUCUGCCCUCAUAGCUCGAGAACAUCUUCGGAUGCAGAGGAGGCAGGCUUCGGUGGCGCGAUAGCGCCAACGUCCUCAACCUCUAAUGCAUCCCACCACAUGAUGAUGCCUGAAGAGCCUUGGUUUUUUG [G17U C89U]
polymerase ribozyme fitness (log ratio): -1.77

Query Sequence: GACCAAUCUGCCCUCAGAGCUCGAGAACGUCUUCGGAUGCAGAGGAGGCAGGCUUCGGUGGCGCGAUAGCGCCAAUCUCCUCAACCUCCAAUGCAUCCCACCACAUGAUGAUGCCUGAAGAGCCUUGGUUUUUUG [A29G C76U G77C]
polymerase ribozyme fitness (log ratio): -2.58

Query Sequence: GACCAAUCUGCCCUCAGAGCUCGAGAACAUCUUCGGAAGCAGAGGAGGCAGGCUUCGGUGGCGCGAUAGCGCCAACGUCCUCAACCUCCAAUGCAUCCCACCACAUGAUGAUGACUGAAGUGCCUUGGUUUUUUG [U38A C114A A121U]
polymerase ribozyme fitness (log ratio): -1.59

Query Sequence: GACCAAUCUGCCCUCAGGGCUCGAGAACAUCUUCGGAUGCAGAAGAGGCAGGCUUCGGUGGCGCGAUAGCGGCAACGUCCUCAACCUCCAAUGCAUCCCACCACAUGAUGAUGCCUGAAGAGCCUUGGUUUUUUG [A18G G44A C72G]
polymerase ribozyme fitness (log ratio): -5.19
